Molecular target: CRAC channel (Homo sapiens, UniProt Q96D31)
Construct: endogenous in cells; host or cells: HEK293 (ECACC), untransfected
Sequence (Q96D31 whole entry): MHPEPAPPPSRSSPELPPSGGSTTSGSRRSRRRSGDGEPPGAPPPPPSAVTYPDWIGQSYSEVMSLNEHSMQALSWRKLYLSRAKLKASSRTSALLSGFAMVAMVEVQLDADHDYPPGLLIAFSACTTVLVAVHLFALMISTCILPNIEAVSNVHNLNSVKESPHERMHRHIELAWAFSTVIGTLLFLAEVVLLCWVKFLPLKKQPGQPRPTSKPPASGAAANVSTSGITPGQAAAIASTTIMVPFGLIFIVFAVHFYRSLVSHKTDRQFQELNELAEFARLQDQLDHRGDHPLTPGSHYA
Assay: HEK Calcium Influx Assay (FLIPR), inhibition of store-operated Ca2+ entry after thapsigargin store depletion
Format: cell-based
Conditions: 10 μM compound, HEK293 cells, read-out: % inhib. [@ 10 μM] FLIPR
For each entry below, report its inhibition at 10 µM value.

Cc1sc(-c2ncco2)nc1N1CCc2[nH]c(-c3c(F)cccc3Cl)cc2C1 [Example 62]    > 70%
Cc1cc(S(C)(=O)=O)ccc1N1CCc2[nH]c(-c3c(F)cccc3F)cc2C1 [Example 88]    50 to 70%
CCOc1cc(OC)c(N2CCc3[nH]c(-c4c(F)cccc4F)cc3C2)cn1 [Example 143]    < 50%
Cc1cc(S(C)(=O)=O)ncc1N1CCc2[nH]c(-c3ccncc3F)cc2C1 [Example 90]    > 70%

Now look at this one.
Ask: Query inhibition at 10 µM for Cc1nc(Cl)ccc1N1CCc2[nH]c(-c3c(F)cccc3F)cc2C1 [Example 15]
Result: > 70%
